Numbers sourced from ChEMBL document CHEMBL1201861.

Tested on: A 172;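 also: growth inhibition of A172 cells, measured with a cell viability readout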
Test: cells
Assay type: functional, cell-based, Homo sapiens
Details: Homo sapiens, A 172
Description: SANGER: Inhibition of human A172 cell growth in a cell viability assay.
Where a name gives a salt, the structure may show the parent alone.
Consider the following compounds; for each one, report its IC50.

Q: IC50 lookup needed for CC(C)c1ccccc1Cc1cc(C(=O)Nc2ccc(S(=O)(=O)c3ccccc3C(C)(C)C)cc2)c(O)c(O)c1O , thanks.
A: 794 nM

Q: Do the same for O=C(O)c1ccc(-c2c[nH]c3ncc(-c4ccccc4)cc23)cc1C1CCCC1 please
A: > 16000 nM

Q: Moving on to the next compound: Cc1cc([N+](=O)[O-])ccc1NS(=O)(=O)c1cc(Cl)ccc1Cl
A: 5910 nM

Q: // same read-out, input: COc1cccc2c1C(=O)c1c(O)c3c(c(O)c1C2=O)C[C@@](O)(C(=O)CO)C[C@@H]3O[C@H]1C[C@H](N)[C@H](O)[C@H](C)O1
A: 80.5 nM

Q: Same lookup for COC1=CC(c2cc3ccccc3[nH]2)=N/C1=C\c1[nH]c(C)cc1C [OBATOCLAX MESYLATE] , please.
A: 887 nM

Q: What about CCC/C=C/C=C/C(=O)O[C@H]1/C(=C/C(=O)OC)C[C@H]2C[C@H]([C@@H](C)O)OC(=O)C[C@H](O)C[C@@H]3C[C@H](OC(C)=O)C(C)(C)[C@](O)(C[C@@H]4C/C(=C/C(=O)OC)C[C@H](/C=C/C(C)(C)[C@]1(O)O2)O4)O3 ?
A: > 8 nM

Q: Likewise for Cc1cn(-c2cc(NC(=O)c3ccc(C)c(Nc4nccc(-c5cccnc5)n4)c3)cc(C(F)(F)F)c2)cn1 ?
A: > 2000 nM

====

Test system: MPP-89;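 also: growth inhibition of human MPP-89 cells, read out with a cell viability assay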
Experiment: cells
Format: functional, cell-based, Homo sapiens
Settings: mpp-89
Description: SANGER: Inhibition of human MPP-89 cell growth in a cell viability assay.
For each entry below, report its pIC50 value.
// pIC50: -log10(molar conc.)

Q: Entry BLEOMYCIN has what pIC50?
A: 4.40

Q: // repeat for CISPLATIN and report
A: 4.79

====

System: Daoy;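 also: daoy cell growth inhibition, read out as cell viability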
Assay: cells
Assay type: functional, cell-based, Homo sapiens
Details: Homo sapiens, Daoy
Description: SANGER: Inhibition of human Daoy cell growth in a cell viability assay.
I'd be grateful if you could share measured IC50 for these entries.

Q: # lookup: IC50 of N#Cc1c(O)c2c(-c3ccc(-c4ccccc4O)cc3)csc2[nH]c1=O
A: > 1020 nM

Q: How about Nc1ccn([C@@H]2O[C@H](CO)[C@@H](O)C2(F)F)c(=O)n1 ?
A: < 4 nM

Q: Follow-up item: Cc1cn(-c2cc(NC(=O)c3ccc(C)c(Nc4nccc(-c5cccnc5)n4)c3)cc(C(F)(F)F)c2)cn1
A: > 2000 nM

Q: Next up: Cn1cnc2c(F)c(Nc3ccc(Br)cc3Cl)c(C(=O)NOCCO)cc21
A: > 4000 nM

Q: For CCC/C=C/C=C/C(=O)O[C@H]1/C(=C/C(=O)OC)C[C@H]2C[C@H]([C@@H](C)O)OC(=O)C[C@H](O)C[C@@H]3C[C@H](OC(C)=O)C(C)(C)[C@](O)(C[C@@H]4C/C(=C/C(=O)OC)C[C@H](/C=C/C(C)(C)[C@]1(O)O2)O4)O3 then?
A: > 8 nM

Q: Another compound to look at: COc1cc2c(Nc3ccc(NC(=O)c4ccccc4)cc3)ncnc2cc1OCCCN1CCOCC1
A: > 4000 nM

====

Test system: DU-4475
Assay: cells
Assay type: functional, cell-based, Homo sapiens
Conditions: Homo sapiens, DU-4475
Description: SANGER: Inhibition of human DU-4475 cell growth in a cell viability assay.
Assignment: determine reported IC50 for the given compounds.
Give just the number in nM; leave the unit off.

Q: Which value of IC50 has been reported for COc1cc2ncn(-c3cc(OCc4ccccc4C(F)(F)F)c(C(N)=O)s3)c2cc1OC [GW843682X] in the records?
A: 80

Q: Try this compound too: Cn1cnc2c(F)c(Nc3ccc(Br)cc3Cl)c(C(=O)NOCCO)cc21 [SELUMETINIB]
A: 33.7

Q: Follow-up item: CC(C)CCN1c2nc(Nc3cc(F)c(O)c(F)c3)ncc2N(C)C(=O)C1C (centres undefined)
A: 504

Q: Now the compound Nc1ccn([C@@H]2O[C@H](CO)[C@@H](O)C2(F)F)c(=O)n1 [GEMCITABINE]
A: 3.14

Q: Please answer likewise for N[C@@H](CSC(c1ccccc1)(c1ccccc1)c1ccccc1)C(=O)O [S-TRITYL-L-CYSTEINE]
A: 1510
